Molecular target: Bifunctional epoxide hydrolase 2 (Mus musculus)
Sequence (P34914 whole entry): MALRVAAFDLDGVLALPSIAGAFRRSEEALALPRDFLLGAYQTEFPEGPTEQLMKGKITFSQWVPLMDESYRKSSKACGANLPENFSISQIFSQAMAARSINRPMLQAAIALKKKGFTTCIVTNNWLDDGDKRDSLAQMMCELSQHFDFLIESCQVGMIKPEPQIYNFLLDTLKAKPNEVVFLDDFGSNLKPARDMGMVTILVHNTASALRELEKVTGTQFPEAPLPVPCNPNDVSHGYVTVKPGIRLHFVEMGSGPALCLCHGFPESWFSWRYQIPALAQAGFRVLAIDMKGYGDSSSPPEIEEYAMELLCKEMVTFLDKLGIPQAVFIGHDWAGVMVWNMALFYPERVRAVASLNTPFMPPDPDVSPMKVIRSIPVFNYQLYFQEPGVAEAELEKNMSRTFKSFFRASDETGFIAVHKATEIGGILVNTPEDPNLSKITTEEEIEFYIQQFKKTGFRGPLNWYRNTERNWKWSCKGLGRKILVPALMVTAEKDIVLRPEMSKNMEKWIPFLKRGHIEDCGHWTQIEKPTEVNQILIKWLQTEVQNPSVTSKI
Experiment: Inhibition of recombinant mouse soluble epoxide hydrolase using PHOME as substrate assessed as 6-methoxynaphthaldehyde product formation preincubated with compound for 10 mins followed by substrate addition and measured by fluorescence based analysis
pIC50: −log10 of the molar value.

COMPOUND	pIC50
C=C(C)C(=O)N1CCCN(C(=O)C2CCCN(Cc3ccc(NC(=O)N[C@@]45C[C@@H]6C[C@@](C)(C[C@@](C)(C6)C4)C5)c(F)c3)C2)CC1 (stereo partly drawn)	8.89
C[C@]12C[C@@H]3C[C@](C)(C1)C[C@@](NC(=O)Nc1ccc(CN4CCCN(C(=O)CC5CCN(CCO)CC5)CC4)cc1F)(C3)C2	9.21
CCC(C)C(=O)N1CCCN(C(=O)C2CCCN(C(=O)c3ccc(NC(=O)N[C@@]45C[C@@H]6C[C@@](C)(C[C@@](C)(C6)C4)C5)c(F)c3)C2)CC1 (stereo partly drawn)	9.05
CCC(C)C(=O)N1CCCN(C(=O)C2CCCN(Cc3ccc(NC(=O)N[C@@]45C[C@@H]6C[C@@](C)(C[C@@](C)(C6)C4)C5)c(F)c3)C2)CC1 (stereo partly drawn)	9.21
CCC(=O)N1CCCN(C(=O)C2CCCN(Cc3ccc(NC(=O)N[C@@]45C[C@@H]6C[C@@](C)(C[C@@](C)(C6)C4)C5)c(F)c3)C2)CC1 (stereo partly drawn)	9.85
C[C@]12C[C@@H]3C[C@](C)(C1)C[C@@](NC(=O)Nc1ccc(CN4CCCC(C(=O)NC(CO)(CO)CO)C4)cc1F)(C3)C2 (stereo partly drawn)	9.49
C[C@]12C[C@@H]3C[C@](C)(C1)C[C@@](NC(=O)Nc1ccc(C(=O)N4CCC(C(=O)NCCO)CC4)cc1F)(C3)C2	9.59
C[C@]12C[C@@H]3C[C@](C)(C1)C[C@@](NC(=O)Nc1ccc(C(=O)N4CCCC(C(=O)N5CCN(CCO)CC5)C4)cc1F)(C3)C2 (stereo partly drawn)	9.82
C[C@]12C[C@@H]3C[C@](C)(C1)C[C@@](NC(=O)Nc1ccc(C(=O)NC4CCC(C(=O)N(CCO)CCO)CC4)cc1F)(C3)C2 (stereo partly drawn)	9.64
CCC(=O)N1CCCN(C(=O)C2CCCN(C(=O)c3ccc(NC(=O)N[C@@]45C[C@@H]6C[C@@](C)(C[C@@](C)(C6)C4)C5)c(F)c3)C2)CC1 (stereo partly drawn)	9.24
C[C@]12C[C@@H]3C[C@](C)(C1)C[C@@](NC(=O)Nc1ccc(CN4CCCC(C(=O)NC(CO)CO)C4)cc1F)(C3)C2 (stereo partly drawn)	9.46
CC(=O)N1CCC(CC(=O)N2CCCN(Cc3ccc(NC(=O)N[C@@]45C[C@@H]6C[C@@](C)(C[C@@](C)(C6)C4)C5)c(F)c3)CC2)CC1	9.96
CC(O)CNC(=O)C1CCCN(Cc2ccc(NC(=O)N[C@@]34C[C@@H]5C[C@@](C)(C[C@@](C)(C5)C3)C4)c(F)c2)C1 (stereo partly drawn)	9.24
CCC(C)C(=O)N1CCC(CC(=O)N2CCCN(Cc3ccc(NC(=O)N[C@@]45C[C@@H]6C[C@@](C)(C[C@@](C)(C6)C4)C5)c(F)c3)CC2)CC1 (stereo partly drawn)	9.80
C[C@]12C[C@@H]3C[C@](C)(C1)C[C@@](NC(=O)Nc1ccc(C(=O)NC4CCC(C(=O)NCCO)CC4)cc1F)(C3)C2 (stereo partly drawn)	9.74
CN(C)CCN1CCC(CC(=O)N2CCCN(Cc3ccc(NC(=O)N[C@@]45C[C@@H]6C[C@@](C)(C[C@@](C)(C6)C4)C5)c(F)c3)CC2)CC1	9.17
C[C@]12C[C@@H]3C[C@](C)(C1)C[C@@](NC(=O)Nc1ccc(CN4CCCC(C(N)=O)C4)cc1F)(C3)C2 (stereo partly drawn)	10.05
C[C@]12C[C@@H]3C[C@](C)(C1)C[C@@](NC(=O)Nc1ccc(C(=O)NC4CCC(C(=O)NC(CO)CO)CC4)cc1F)(C3)C2 (stereo partly drawn)	9.26
C[C@]12C[C@@H]3C[C@](C)(C1)C[C@@](NC(=O)Nc1ccc(CN4CCC(C(N)=O)CC4)cc1F)(C3)C2	10.22
CCN(CC)C(=O)C1CCN(C(=O)c2ccc(NC(=O)N[C@@]34C[C@@H]5C[C@@](C)(C[C@@](C)(C5)C3)C4)c(F)c2)CC1	9.28
C=C(C)C(=O)N1CCC(CC(=O)N2CCCN(C(=O)c3ccc(NC(=O)N[C@@]45C[C@@H]6C[C@@](C)(C[C@@](C)(C6)C4)C5)cc3)CC2)CC1	9.89
COC(=O)N1CCC(CC(=O)N2CCCN(Cc3ccc(NC(=O)N[C@@]45C[C@@H]6C[C@@](C)(C[C@@](C)(C6)C4)C5)c(F)c3)CC2)CC1	9.39
C[C@]12C[C@@H]3C[C@](C)(C1)C[C@@](NC(=O)Nc1ccc(CN4CCCC(C(=O)O)C4)cc1F)(C3)C2 (stereo partly drawn)	9.21
C[C@]12C[C@@H]3C[C@](C)(C1)C[C@@](NC(=O)Nc1ccc(CN4CCC(C(=O)NC(CO)(CO)CO)CC4)cc1F)(C3)C2	9.92
C[C@]12C[C@@H]3C[C@](C)(C1)C[C@@](NC(=O)Nc1ccc(C(=O)N4CCCC(C(=O)O)C4)cc1F)(C3)C2 (stereo partly drawn)	8.89
CC(O)CNC(=O)C1CCN(C(=O)c2ccc(NC(=O)N[C@@]34C[C@@H]5C[C@@](C)(C[C@@](C)(C5)C3)C4)c(F)c2)CC1 (stereo partly drawn)	9.74
C[C@]12C[C@@H]3C[C@](C)(C1)C[C@@](NC(=O)Nc1ccc(CN4CCCC(C(=O)N5CCN(CCO)CC5)C4)cc1F)(C3)C2 (stereo partly drawn)	9.26
C[C@]12C[C@@H]3C[C@](C)(C1)C[C@@](NC(=O)Nc1ccc(CN4CCCC(C(=O)NCCO)C4)cc1F)(C3)C2 (stereo partly drawn)	9.74

====

Experiment: Cmax in Sprague-Dawley rat at 10 mg/kg, iv administered as single dose and measured upto 8 hrs by HPLC analysis
Type: ADME, organism-based
Set-up: time < 8 hrs, dose 10 mg/kg, route iv
Conditions: in vivo

MOLECULE	Cmax, nM
CCC(=O)N1CCCN(C(=O)C2CCCN(Cc3ccc(NC(=O)N[C@@]45C[C@@H]6C[C@@](C)(C[C@@](C)(C6)C4)C5)c(F)c3)C2)CC1 (stereo partly specified)	3.77

====

Biological target: Bifunctional epoxide hydrolase 2 (Homo sapiens)
Sequence (P34913 whole entry): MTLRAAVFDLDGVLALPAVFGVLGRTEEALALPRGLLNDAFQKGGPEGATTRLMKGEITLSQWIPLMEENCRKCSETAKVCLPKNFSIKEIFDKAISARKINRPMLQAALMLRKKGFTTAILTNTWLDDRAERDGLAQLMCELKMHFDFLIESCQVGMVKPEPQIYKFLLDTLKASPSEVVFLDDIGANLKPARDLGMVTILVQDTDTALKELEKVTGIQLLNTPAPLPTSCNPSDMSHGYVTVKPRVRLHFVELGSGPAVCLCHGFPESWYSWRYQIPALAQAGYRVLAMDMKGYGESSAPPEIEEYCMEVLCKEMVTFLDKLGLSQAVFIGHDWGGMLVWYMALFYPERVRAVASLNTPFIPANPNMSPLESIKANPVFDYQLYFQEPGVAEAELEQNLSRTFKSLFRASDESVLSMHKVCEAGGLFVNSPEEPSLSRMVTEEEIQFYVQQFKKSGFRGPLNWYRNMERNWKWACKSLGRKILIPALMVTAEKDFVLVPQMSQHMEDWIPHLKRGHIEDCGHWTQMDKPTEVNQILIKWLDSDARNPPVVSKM
Experiment: Inhibition of recombinant human soluble epoxide hydrolase using PHOME as substrate assessed as 6-methoxynaphthaldehyde product formation preincubated with compound for 10 mins followed by substrate addition and measured by fluorescence based analysis
pIC50: −log10 of the molar value.
Tag: 1 (yes) if measured pIC50 is not below 9, 0 (no) if it is.

COMPOUND	CLASS
CCN(CC)C(=O)C1CCN(C(=O)c2ccc(NC(=O)N[C@@]34C[C@@H]5C[C@@](C)(C[C@@](C)(C5)C3)C4)c(F)c2)CC1	0 (no)
C[C@]12C[C@@H]3C[C@](C)(C1)C[C@@](NC(=O)Nc1ccc(CN4CCCN(C(=O)CC5CCN(CC(O)CO)CC5)CC4)cc1F)(C3)C2 (stereo partly drawn)	0 (no)
CCC(=O)N1CCC(CC(=O)N2CCCN(Cc3ccc(NC(=O)N[C@@]45C[C@@H]6C[C@@](C)(C[C@@](C)(C6)C4)C5)c(F)c3)CC2)CC1	1 (yes)
C[C@]12C[C@@H]3C[C@](C)(C1)C[C@@](NC(=O)Nc1ccc(C(=O)N4CCC(C(=O)NCCO)CC4)cc1F)(C3)C2	0 (no)
C[C@]12C[C@@H]3C[C@](C)(C1)C[C@@](NC(=O)Nc1ccc(CN4CCCC(C(=O)NC(CO)(CO)CO)C4)cc1F)(C3)C2 (stereo partly drawn)	1 (yes)
CC(O)CNC(=O)C1CCCN(C(=O)c2ccc(NC(=O)N[C@]34C[C@@H]5C[C@@](C)(C[C@@](C)(C5)C3)C4)c(F)c2)C1 (stereo partly drawn)	1 (yes)
C[C@]12C[C@@H]3C[C@](C)(C1)C[C@@](NC(=O)Nc1ccc(CN4CCC(C(=O)NC(CO)CO)CC4)cc1F)(C3)C2	0 (no)
CC(CN(C)C)N1CCC(CC(=O)N2CCCN(C(=O)c3ccc(NC(=O)N[C@@]45C[C@@H]6C[C@@](C)(C[C@@](C)(C6)C4)C5)c(F)c3)CC2)CC1 (stereo partly drawn)	0 (no)
CC(C)(C)OC(=O)N1CCN(CCNC(=O)C2CCC(NC(=O)c3ccc(NC(=O)N[C@@]45C[C@@H]6C[C@@](C)(C[C@@](C)(C6)C4)C5)c(F)c3)CC2)CC1 (stereo partly drawn)	0 (no)
C[C@]12C[C@@H]3C[C@](C)(C1)C[C@@](NC(=O)Nc1ccc(CN4CCCC(C(=O)N5CCCN(C(=O)C6CC6)CC5)C4)cc1F)(C3)C2 (stereo partly drawn)	1 (yes)
